Just for reference, paper PMC8449414 is where these values come from.

- targetEntity: rEAAT2 (Rattus norvegicus, UniProt P31596)
- Sequence (P31596 whole entry): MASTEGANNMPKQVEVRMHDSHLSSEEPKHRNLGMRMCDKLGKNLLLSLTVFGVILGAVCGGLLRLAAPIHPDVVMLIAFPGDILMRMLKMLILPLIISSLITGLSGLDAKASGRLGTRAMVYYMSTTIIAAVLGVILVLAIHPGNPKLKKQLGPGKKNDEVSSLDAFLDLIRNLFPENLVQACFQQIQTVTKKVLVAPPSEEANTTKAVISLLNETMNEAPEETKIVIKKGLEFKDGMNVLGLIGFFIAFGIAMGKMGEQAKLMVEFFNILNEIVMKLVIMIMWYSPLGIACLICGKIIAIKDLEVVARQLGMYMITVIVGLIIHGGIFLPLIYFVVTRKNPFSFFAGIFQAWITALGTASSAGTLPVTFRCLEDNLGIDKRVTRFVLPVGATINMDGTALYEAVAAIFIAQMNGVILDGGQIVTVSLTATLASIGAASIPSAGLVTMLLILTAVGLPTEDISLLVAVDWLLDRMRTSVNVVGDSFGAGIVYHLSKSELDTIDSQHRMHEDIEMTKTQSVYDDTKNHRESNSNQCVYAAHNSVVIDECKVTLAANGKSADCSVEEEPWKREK
- experimentalProtocol: Electrophysiology: SLC1 specificity, anion current in transfected HEK293 cells
- conditionInfo: 0 mV, 10 mM glutamate and 130 mM NaSCN internal, No current = no outward current up to highest concentration tested (§ 20-50, || 100-400, # 1500-2500 µM), read-out: Binding affinity Ki
Ki under 8 µM gets yes, anything at or over 8 µM gets no.

Here's an entry: O=C(O[C@@H]1CN[C@H](C(=O)O)C1)c1ccc(-c2ccc(C(F)(F)F)cc2)cc1 [ERA-5] . Is its Ki below 8 µM?
yes

Here's an entry: Cc1ccccc1-c1ccc(C(=O)O[C@@H]2CN[C@H](C(=O)O)C2)cc1 [ERA-6] . Is its Ki below 8 µM?
yes

Here's an entry: N[C@@H](COC(=O)c1ccc(NC(=O)c2ccccc2)cc1)C(=O)O [ERA-21] . Is its Ki below 8 µM?
no

Continuing:
Here's an entry: N[C@@H](COC(=O)c1ccccc1)C(=O)O [ERA-25] . Is its Ki below 8 µM?
no

Here's an entry: O=C(O[C@@H]1CN[C@H](C(=O)O)C1)c1ccc(Oc2ccccc2)cc1 [ERA-16] . Is its Ki below 8 µM?
yes

Here's an entry: O=C(O[C@@H]1CN[C@H](C(=O)O)C1)c1ccc(-c2ccc(F)cc2)cc1 [ERA-4] . Is its Ki below 8 µM?
yes

* * *

Form field: Ki (one value per entry).
- targetEntity: hASCT2 (Homo sapiens)
- Sequence (Q15758 whole entry): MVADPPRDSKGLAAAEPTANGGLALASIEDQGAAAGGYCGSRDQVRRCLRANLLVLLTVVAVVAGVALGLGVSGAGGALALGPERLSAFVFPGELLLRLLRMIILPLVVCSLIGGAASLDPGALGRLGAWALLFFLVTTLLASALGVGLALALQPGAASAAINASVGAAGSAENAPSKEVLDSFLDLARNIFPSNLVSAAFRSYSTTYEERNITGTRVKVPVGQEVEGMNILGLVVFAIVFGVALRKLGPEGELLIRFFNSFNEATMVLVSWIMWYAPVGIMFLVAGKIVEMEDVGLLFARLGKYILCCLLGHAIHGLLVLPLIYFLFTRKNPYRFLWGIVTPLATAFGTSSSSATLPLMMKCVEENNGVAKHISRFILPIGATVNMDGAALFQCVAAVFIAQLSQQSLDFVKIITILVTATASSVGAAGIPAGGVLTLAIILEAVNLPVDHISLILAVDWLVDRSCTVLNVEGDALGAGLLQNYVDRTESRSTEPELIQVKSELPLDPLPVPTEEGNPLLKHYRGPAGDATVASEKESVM
- experimentalProtocol: Electrophysiology: inhibition of leak anion current in transfected HEK293 cells
- conditionInfo: HEK293 cells, 0 mV, 130 mM NaSCN internal, 140 mM NaCl external; No current = no inhibition of anion leak current up to highest concentration tested (§ 20-50, || 100-400, # 1500-2500 µM); read-out: Binding affinity Ki (apparent Ki)
# number only, unit µM dropped from output

Use these answered entries as a reference point.
Kindly indicate its recorded Ki. Item: "O=C(O[C@H]1CN[C@H](C(=O)O)C1)c1ccc(-c2ccccc2)cc1"
205

Kindly indicate its recorded Ki. Item: "O=C(O[C@@H]1CN[C@H](C(=O)O)C1)c1ccc(Oc2ccccc2)cc1"
4.17

Kindly indicate its recorded Ki. Item: "N[C@@H](COC(=O)c1ccccc1)C(=O)O"
186

Then there is this molecule:
Kindly indicate its recorded Ki. Item: O=C(O[C@@H]1CN[C@H](C(=O)O)C1)c1ccc(-c2ccccc2)cc1 [Lc-BPE, L-cis hydroxyproline biphenyl ester]
0.86

* * *

- targetEntity: UniProtKB D3ZJ25
- Sequence (D3ZJ25 whole entry): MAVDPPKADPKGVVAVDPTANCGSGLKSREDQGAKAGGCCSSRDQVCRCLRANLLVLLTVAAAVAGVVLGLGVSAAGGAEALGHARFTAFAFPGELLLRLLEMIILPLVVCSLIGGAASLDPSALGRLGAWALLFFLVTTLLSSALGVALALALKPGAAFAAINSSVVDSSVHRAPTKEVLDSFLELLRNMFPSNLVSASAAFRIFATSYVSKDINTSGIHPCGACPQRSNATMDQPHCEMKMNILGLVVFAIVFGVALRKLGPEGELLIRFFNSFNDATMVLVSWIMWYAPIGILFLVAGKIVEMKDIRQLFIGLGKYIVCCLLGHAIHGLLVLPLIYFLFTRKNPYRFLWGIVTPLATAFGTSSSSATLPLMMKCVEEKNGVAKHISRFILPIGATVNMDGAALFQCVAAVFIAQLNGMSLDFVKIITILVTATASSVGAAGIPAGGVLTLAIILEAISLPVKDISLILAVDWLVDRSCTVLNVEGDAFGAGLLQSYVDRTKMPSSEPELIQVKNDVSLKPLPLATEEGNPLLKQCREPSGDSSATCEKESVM
- experimentalProtocol: Electrophysiology: inhibition of leak anion current in transfected HEK293 cells
- conditionInfo: HEK293 cells, 0 mV, 130 mM NaSCN internal, 140 mM NaCl external; No current = no inhibition of anion leak current up to highest concentration tested (§ 20-50, || 100-400, # 1500-2500 µM); read-out: Binding affinity Ki (apparent Ki)
Form field: Ki (one value per entry).
# number only, unit µM dropped from output

Kindly indicate its recorded Ki. Item: O=C(O[C@@H]1CN[C@H](C(=O)O)C1)c1ccc(C(O)c2ccccc2)cc1 (stereo partly shown)
18.8

Continuing:
Kindly indicate its recorded Ki. Item: "O=C(Nc1ccc(C(=O)O[C@@H]2CN[C@H](C(=O)O)C2)cc1)c1ccc(C(F)(F)F)cc1"
3.37

Kindly indicate its recorded Ki. Item: "O=C(O[C@@H]1CN[C@H](C(=O)O)C1)c1ccc(-c2ccc(C(F)(F)F)cc2)cc1"
0.27

Kindly indicate its recorded Ki. Item: "O=C(O[C@@H]1CN[C@H](C(=O)O)C1)c1ccc(Oc2ccccc2)cc1"
3.68

Kindly indicate its recorded Ki. Item: "O=C(O[C@H]1CN[C@H](C(=O)O)C1)c1ccc(C(=O)c2ccccc2)cc1"
121

Kindly indicate its recorded Ki. Item: "O=C(O[C@@H]1CN[C@H](C(=O)O)C1)c1ccc(OCc2ccccc2)cc1"
8.17

Kindly indicate its recorded Ki. Item: O=C(O[C@@H]1CN[C@H](C(=O)O)C1)c1ccc(-c2ccccc2)cc1 [Lc-BPE, L-cis hydroxyproline biphenyl ester]
0.74
